// provenance: patent US20240342292A1

Biological target: L858R/T790M/C797S EGFR (Homo sapiens, UniProt P00533, C797S/L858R/T790M)
Construct: expressed in transfected cells; host or cells: H1975 clone #25 (lentiviral over-expression, endogenous EGFR knocked out by sgRNA)
Sequence (P00533 25-1210 T790M/C797S/L858R): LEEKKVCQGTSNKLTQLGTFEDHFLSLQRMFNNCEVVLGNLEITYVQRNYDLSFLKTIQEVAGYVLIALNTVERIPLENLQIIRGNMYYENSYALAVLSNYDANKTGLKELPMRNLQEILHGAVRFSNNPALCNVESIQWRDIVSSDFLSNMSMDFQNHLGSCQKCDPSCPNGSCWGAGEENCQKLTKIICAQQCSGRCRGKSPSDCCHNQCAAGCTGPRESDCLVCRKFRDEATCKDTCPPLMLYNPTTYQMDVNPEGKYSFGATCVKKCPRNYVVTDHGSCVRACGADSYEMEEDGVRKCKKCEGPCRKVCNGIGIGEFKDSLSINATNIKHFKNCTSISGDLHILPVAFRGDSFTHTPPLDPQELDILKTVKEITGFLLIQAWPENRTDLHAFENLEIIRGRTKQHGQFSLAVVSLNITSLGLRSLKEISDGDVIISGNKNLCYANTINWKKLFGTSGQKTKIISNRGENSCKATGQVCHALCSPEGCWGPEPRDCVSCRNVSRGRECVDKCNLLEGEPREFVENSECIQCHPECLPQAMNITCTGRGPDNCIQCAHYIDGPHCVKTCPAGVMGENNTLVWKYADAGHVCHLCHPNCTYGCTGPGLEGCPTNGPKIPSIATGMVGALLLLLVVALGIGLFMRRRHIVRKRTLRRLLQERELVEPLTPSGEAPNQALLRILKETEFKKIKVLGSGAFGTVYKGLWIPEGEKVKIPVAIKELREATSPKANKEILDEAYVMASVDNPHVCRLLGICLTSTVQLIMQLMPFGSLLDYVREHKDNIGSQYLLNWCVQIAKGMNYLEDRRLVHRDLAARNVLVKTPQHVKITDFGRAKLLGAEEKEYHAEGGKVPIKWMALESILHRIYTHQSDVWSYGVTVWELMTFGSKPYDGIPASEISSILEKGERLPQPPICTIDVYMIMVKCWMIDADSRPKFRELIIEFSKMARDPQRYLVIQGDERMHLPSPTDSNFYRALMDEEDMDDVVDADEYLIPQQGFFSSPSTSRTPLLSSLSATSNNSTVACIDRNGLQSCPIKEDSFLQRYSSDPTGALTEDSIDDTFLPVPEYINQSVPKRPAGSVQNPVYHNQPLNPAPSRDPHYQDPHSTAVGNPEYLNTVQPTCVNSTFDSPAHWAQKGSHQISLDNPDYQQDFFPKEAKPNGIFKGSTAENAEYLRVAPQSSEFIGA
Assay: EGFR degradation HTRF assay in H1975-clone #25 (LTC) cells
Format: cell-based
Details: NCI-H1975, H1975 # 25-LTC (L858R/T790M/C797S), 16h treatment, maximum percentage of degradation
Readout kind: Dmax (%)

{"columns": ["Compound smiles", "Dmax [%]"],
 "data": [
  ["COC[C@@H]1CN(C2CCN(c3cc(F)c([C@H]4CCC(=O)NC4=O)c(F)c3)CC2)CCN1c1ccc2c(c1)N1C[C@H](C)CCCOc3c(cnn3C)-c3cc(cc(C)n3)C(=O)/N=C/1N2", 86.6],
  ["Cc1cc2cc(n1)-c1cnn(C)c1OCCC[C@@H](C)CN1/C(=N/C2=O)Nc2ccc(CN3CCN(C(=O)[C@@H]4CCN(c5cc(F)c([C@H]6CCC(=O)NC6=O)c(F)c5)C4)C[C@@H]3C)cc21", 82.7],
  ["Cc1cc2cc(n1)-c1cnn(C)c1OCCC[C@@H](C)CN1/C(=N/C2=O)Nc2ccc(N3CCN(CCN(C)c4ccc5c(c4)CN([C@H]4CCC(=O)NC4=O)C5=O)CC3)cc21", 80.5]
]}

----------
Biological target: L858R/T790M/C797S EGFR (Homo sapiens, UniProt P00533, C797S/L858R/T790M)
Construct: expressed in transfected cells; host or cells: H1975 clone #25 (lentiviral over-expression, endogenous EGFR knocked out by sgRNA)
Assay: EGFR degradation HTRF assay in H1975-clone #25 (LTC) cells
Type: cell-based
Details: NCI-H1975, H1975 # 25-LTC (L858R/T790M/C797S), 16h treatment, maximum percentage of degradation
Readout kind: Dmax (%)

{"columns": ["Compound", "Dmax [%]"],
 "data": [
  ["Cc1cc2cc(n1)-c1cnn(C)c1OCCC[C@@H](C)CN1/C(=N/C2=O)Nc2ccc(N3CCN(C4CCN(c5ccc(C6CCC(=O)NC6=O)nc5)CC4)CC3)cc21 (some centres unmarked)", 84.9],
  ["Cc1cc2cc(n1)-c1cnn(C)c1OCCC[C@@H](C)CN1/C(=N/C2=O)Nc2ccc(C3CCN(CC4CN(c5cc(F)c([C@H]6CCC(=O)NC6=O)c(F)c5)C4)CC3)cc21", 97.1],
  ["Cc1cc2cc(n1)-c1cnn(C)c1OCCC[C@@H](C)CN1/C(=N/C2=O)Nc2ccc(N3CCN(C4CCN(c5cc(F)c([C@H]6CCC(=O)NC6=O)c(F)c5)CC4)C[C@H]3C)cc21", 87.7],
  ["Cc1cc2cc(n1)-c1cnn(C)c1OCCCCCN1/C(=N/C2=O)Nc2ccc(CN3CCN(CCc4cc(F)c([C@H]5CCC(=O)NC5=O)c(F)c4)CC3)cc21", 80.8],
  ["Cc1cc2cc(n1)-c1cnn(C)c1OCCC[C@@H](C)CN1/C(=N/C2=O)Nc2ccc(CCN3CCN(c4cc(F)c([C@H]5CCC(=O)NC5=O)c(F)c4)CC3)cc21", 91.8]
]}

----------
Target: L858R/T790M/C797S EGFR (Homo sapiens, UniProt P00533, C797S/L858R/T790M)
Construct: expressed in transfected cells; host or cells: H1975 clone #25 (lentiviral over-expression, endogenous EGFR knocked out by sgRNA)
Experiment: EGFR degradation HTRF assay in H1975-clone #25 (LTC) cells
Format: cell-based
Conditions: H1975 # 25-LTC (L858R/T790M/C797S), 16h treatment, HTRF
Readout kind: DC50 (nM)

{"columns": ["Compound", "Measured target", "Scale unit", "DC50"],
 "data": [
  ["Cc1cc2cc(n1)-c1cnn(C)c1OCCC[C@@H](C)CN1/C(=N/C2=O)Nc2ccc(C(=O)N(C)C3CCN(C4CN(c5cc(F)c([C@H]6CCC(=O)NC6=O)c(F)c5)C4)CC3)cc21 [Example 290]", "L858R/T790M/C797S EGFR (Homo sapiens, UniProt P00533, C797S/L858R/T790M)", "nM", 0.644],
  ["Cc1cc2cc(n1)-c1cnn(C)c1OCCC[C@@H](C)CN1/C(=N/C2=O)Nc2ccc(C(=O)N(C)[C@@H]3CCCN(CCc4cc(F)c([C@H]5CCC(=O)NC5=O)c(F)c4)CC3)cc21 [Example 292]", "L858R/T790M/C797S EGFR (Homo sapiens, UniProt P00533, C797S/L858R/T790M)", "nM", 0.514],
  ["Cc1cc2cc(n1)-c1cnn(C)c1OCCC[C@@H](C)CN1/C(=N/C2=O)Nc2ccc(C(=O)N(C)[C@H]3CCN(CCc4cc(F)c([C@H]5CCC(=O)NC5=O)c(F)c4)CC3(F)F)cc21 [Example 251]", "L858R/T790M/C797S EGFR (Homo sapiens, UniProt P00533, C797S/L858R/T790M)", "nM", 0.888]
]}

1: Cc1cc2cc(n1)-c1cnn(C)c1OCCC[C@@H](C)CN1/C(=N/C2=O)Nc2ccc(C(=O)N(C)[C@H]3CCN(CCc4cc(F)c([C@H]5CCC(=O)NC5=O)c(F)c4)[C@H](C)C3)cc21 [Example 259]
2: Cc1cc2cc(n1)-c1cnn(C)c1OCCC[C@@H](C)CN1/C(=N/C2=O)Nc2ccc(C(=O)N[C@@H]3CCN(CCc4cc(F)c([C@H]5CCC(=O)NC5=O)c(F)c4)[C@H](C)C3)cc21 [Example 269]
Query: Compare 1 and 2 and name the one whose reported DC50 is smaller. Reply with the label of the item you choose.
Result: 2
(2: 0.316 nM, 1: 0.841 nM)
